- target-of-assay: hGIP-R (Homo sapiens)
- Construct: expressed in transfected cells; host or cells: HEK-293 clonal cell lines
- assay-overview: Functional hGIP-R Assay (cAMP formation, HTRF)
- Assay type: cell-based
- condition-notes: cAMP efficacy; percent of maximal response to GIP(1-42)OH; 37° C., 0.1% bovine casein; arithmetic mean ± SEM
A collection of compounds and their measured Emax
measurement-kind: Emax (%)

# structure-notation, units-of-measure, readout-number
records = [
    ("[2H]C([2H])([2H])n1cc(C[C@H](C(=O)NC(C)(C)Cn2nc(C(F)(F)F)cc2-c2ccc(C(C)(C)O)nc2)N2CC[C@@]3(C[C@@H]3c3ccc(-c4cnc5nc(COC)cn5c4)cc3Cl)C2=O)cn1", "%", 110),
    ("Cc1cn2cc(-c3ccc([C@H]4C[C@@]45CCN([C@H](Cc4cnn(C(F)F)c4)C(=O)NC(C)(C)Cn4nc(C(F)(F)F)cc4-c4ccc(=O)[nH]n4)C5=O)c(F)c3)cnc2n1", "%", 73.2),
    ("COc1ncc(-c2ccc([C@H]3C[C@@]34CCN([C@H](Cc3cnn(C(F)F)c3)C(=O)NC(C)(C)Cn3nc(C(F)(F)F)cc3-c3ccn(C5CC5)c(=O)c3)C4=O)c(C)n2)cn1", "%", 15.9),
    ("[2H]C([2H])([2H])n1cc(C[C@H](C(=O)NC(C)(C)Cn2nc(C(F)(F)F)cc2-c2ccc(C(C)(C)O)nc2)N2CC[C@@]3(C[C@@H]3c3ccc(-c4cnc5nc(C6CC6)cn5c4)nc3C)C2=O)cn1", "%", 115),
    ("[2H]C([2H])([2H])N(C(=O)[C@H]1C[C@@H]1c1ccc(-c2cnc3nn(C)cc3c2)nc1C(F)F)[C@H](Cc1cnn(C(F)F)c1)C(=O)NC(C)(C)Cn1nc(C(F)(F)F)cc1-c1cc(F)c(=O)n(C)c1", "%", 61.7),
    ("Cn1cc(C[C@@H](NC(=O)[C@H]2C[C@@H]2c2ccc(-c3cnc4nn(C)cc4c3)cc2)C(=O)NC(C)(C)Cn2nc(C(F)(F)F)cc2-c2n[nH]c(=O)s2)cn1", "%", 104),
    ("Cc1ccc2cc(-c3ccc([C@H]4C[C@@H]4C(=O)N[C@H](Cc4cnn(C)c4)C(=O)NC(C)(C)Cn4nc(C(F)(F)F)cc4-c4cn[nH]n4)cc3)cnc2n1", "%", 101),
    ("Cn1cc2cc(-c3ccc([C@H]4C[C@@]45CCN([C@H](Cc4cnn(C(F)F)c4)C(=O)NC(C)(C)Cn4nc(C(F)(F)F)cc4-c4cn(C)c(=O)c6ccnn46)C5=O)cc3)cnc2n1", "%", 78.4),
    ("Cn1cc(C[C@@H](NC(=O)[C@H]2C[C@@H]2c2ccc(-c3cnc4nn(C)cc4c3)cc2)C(=O)NC(C)(C)Cn2nc(C(F)(F)F)cc2-c2ccnc(C(C)(C)O)c2)cn1", "%", 116),
    ("COCc1cn2cc(-c3ccc([C@H]4C[C@@H]4C(=O)N(C)[C@H](Cc4cnn(C)c4)C(=O)NC(C)(C)Cn4nc(C(F)(F)F)cc4-c4ccc(=O)n(C)c4)cc3)cnc2n1", "%", 120),
]

----------
- target-of-assay: hGIP-R (Homo sapiens)
- Construct: expressed in transfected cells; host or cells: HEK-293 clonal cell lines
- assay-overview: Functional hGIP-R Assay (cAMP formation, HTRF)
- Assay type: cell-based
- condition-notes: cAMP potency; HEK-293 cells expressing hGIP-R; incubated at 37° C. in the presence of 0.1% bovine casein; geometric mean; read-out: Human GIP-R EC50, nM (SEM, n)
EC50 less than 60 nM is true (1); EC50 greater than or equal to 60 nM is false (0).

# molecule, assigned-label
data = [
    ("Cc1c(-c2cc(C(F)(F)F)nn2CC(C)(C)NC(=O)[C@@H](Cc2cnn(C(F)F)c2)N2CC[C@@]3(C[C@@H]3c3ccc(-c4cnc5nn(C)cc5c4)cc3)C2=O)cn(C)c(=O)c1C#N [Example 128]", "false (0)"),
    ("[2H]C([2H])([2H])N(C(=O)[C@H]1C[C@@H]1c1ccc(-c2cnc3nn(C)cc3c2)nc1C(F)F)[C@H](Cc1cnn(C(F)F)c1)C(=O)NC(C)(C)Cn1nc(C(F)(F)F)cc1-c1cc(F)c(=O)n(C)c1 [Example 137]", "true (1)"),
    ("CN(C(=O)[C@H]1C[C@@H]1c1ccc(-c2cnc3nn(C(F)(F)F)cc3c2)cc1)[C@H](Cc1cnn(C)c1)C(=O)NC(C)(C)Cn1nc(C(F)(F)F)cc1-c1ccc(=O)n(C)c1 [Example 89]", "false (0)"),
]

----------
- target-of-assay: hGIP-R (Homo sapiens)
- Construct: expressed in transfected cells; host or cells: HEK-293 clonal cell lines
- Sequence (P48546 22-466): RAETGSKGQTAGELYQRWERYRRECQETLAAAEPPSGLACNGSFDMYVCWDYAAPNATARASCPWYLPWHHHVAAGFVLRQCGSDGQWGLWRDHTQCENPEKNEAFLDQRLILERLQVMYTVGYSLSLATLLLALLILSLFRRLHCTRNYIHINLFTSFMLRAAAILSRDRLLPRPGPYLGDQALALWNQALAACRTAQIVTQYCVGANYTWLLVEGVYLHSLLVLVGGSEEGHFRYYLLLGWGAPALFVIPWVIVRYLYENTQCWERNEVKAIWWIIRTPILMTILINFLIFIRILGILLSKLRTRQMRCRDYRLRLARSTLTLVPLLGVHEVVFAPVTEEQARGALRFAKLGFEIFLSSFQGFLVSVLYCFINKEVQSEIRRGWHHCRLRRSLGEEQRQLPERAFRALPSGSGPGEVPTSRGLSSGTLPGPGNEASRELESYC
- assay-overview: Functional hGIP-R Assay (cAMP formation, HTRF)
- Assay type: cell-based
- condition-notes: cAMP potency; HEK-293 cells expressing hGIP-R; incubated at 37° C. in the presence of 0.1% bovine casein; geometric mean; read-out: Human GIP-R EC50, nM (SEM, n)
measurement-kind: EC50 (nM)

# compound, readout-number
measured = [
    ("Cc1cn2cc(-c3ccc(C4CC45CCN([C@H](Cc4cnn(C(F)F)c4)C(=O)NC(C)(C)Cn4nc(C(F)(F)F)cc4-c4ccn(C6CC6)c(=O)c4)C5=O)c(C4CC4)n3)cnc2n1 (single isomer, unassigned) [Example 167]", 0.753),
    ("[2H]C([2H])([2H])n1cc(C[C@H](C(=O)NC(C)(C)Cn2nc(C(F)(F)F)cc2-c2ccc(C(C)(C)O)nc2)N2CC[C@@]3(C[C@@H]3c3ccc(-c4cnc5nc(COC)cn5c4)nc3C3CC3)C2=O)cn1 [Example 192]", 0.0409),
    ("Cn1cc2cc(-c3ccc([C@H]4C[C@@]45CCN([C@H](Cc4cnn(C(F)F)c4)C(=O)NC(C)(C)Cn4nc(C(F)(F)F)cc4-c4cn(C)c(=O)c6ccccc46)C5=O)cc3)cnc2n1 [Example 129]", 138),
    ("CN1CC2C=C(c3ccc([C@H]4C[C@@]45CCN([C@H](Cc4cnn(C(F)F)c4)C(=O)NC(C)(C)Cn4nc(C(F)(F)F)cc4-c4cnc(C(F)(F)F)nc4)C5=O)cc3)C=NC2C1=O (single isomer, unassigned; isomer 1) [Example 103]", 99.6),
    ("Cc1ccc2cc(-c3ccc([C@H]4C[C@@H]4C(=O)N[C@H](Cc4cnn(C)c4)C(=O)NC(C)(C)Cn4nc(C(F)(F)F)cc4-c4cn[nH]n4)cc3)cnc2n1 [Example 94]", 35.4),
    ("Cn1cc(C[C@@H](NC(=O)[C@H]2C[C@@H]2c2ccc(-c3cnc4nn(C)cc4c3)cc2)C(=O)NC(C)(C)Cn2nc(C(F)(F)F)cc2-n2nccn2)cn1 (single isomer, unassigned) [Example 13]", 49.7),
    ("Cn1cc2cc(-c3ccc([C@H]4C[C@@]45CCN([C@H](Cc4cnn(C(F)F)c4)C(=O)NC(C)(C)Cn4nc(C(F)(F)F)cc4-c4cc(F)c(CO)cc4F)C5=O)cc3)cnc2n1 [Example 124]", 55.6),
    ("Cn1cc(C[C@@H](NC(=O)[C@H]2C[C@@H]2c2ccc(-c3cnc4nn(C)cc4c3)cc2)C(=O)NC(C)(C)Cn2nc(C(F)(F)F)cc2-c2cccc(=O)[nH]2)cn1 [Example 64]", 61.9),
]

----------
- target-of-assay: hGIP-R (Homo sapiens, UniProt P48546)
- Construct: expressed in transfected cells; host or cells: HEK-293 clonal cell lines
- assay-overview: Functional hGIP-R Assay (cAMP formation, HTRF)
- Type: cell-based
- condition-notes: cAMP potency; HEK-293 cells expressing hGIP-R; incubated at 37° C. in the presence of 0.1% bovine casein; geometric mean; read-out: Human GIP-R EC50, nM (SEM, n)
EC50 less than 30 nM is true (1); EC50 greater than or equal to 30 nM is false (0).

# molecule, assigned-label
measured = [
    ("Cc1cn2cc(-c3ccc([C@H]4C[C@@]45CCN([C@H](Cc4cnn(C(F)F)c4)C(=O)NC(C)(C)Cn4nc(C(F)(F)F)cc4-c4cnc(C(F)(F)F)nc4)C5=O)cc3)cnc2n1 (single isomer, unassigned; isomer 1) [Example 102]", "false (0)"),
    ("Cn1cc(-c2cc(C(F)(F)F)nn2CC(C)(C)NC(=O)[C@@H](Cc2cnn(C(F)F)c2)N2CCC3(CC3c3ccc4cnn(C)c4c3)C2=O)cc(F)c1=O (single isomer, unassigned) [Example 184]", "true (1)"),
    ("[2H]C([2H])([2H])n1cc(C[C@H](C(=O)NC(C)(C)Cn2nc(C(F)(F)F)cc2-c2ccc(C(C)(C)O)nc2)N2CC[C@@]3(C[C@@H]3c3ccc(-c4cnc5nn(C6CC6)cc5c4)nc3C)C2=O)cn1 [Example 190]", "true (1)"),
    ("Cc1cn2cc(-c3ccc([C@H]4C[C@@]45CCN([C@H](Cc4cnn(C(F)F)c4)C(=O)NC(C)(C)Cc4nc(C(F)(F)F)cn4C4CCN(C)C4=O)C5=O)c(Cl)c3)cnc2n1 (single isomer, unassigned; isomer 1) [Example 177]", "true (1)"),
    ("CC(C)(Cn1cc(C(F)(F)F)cn1)NC(=O)[C@@H](Cc1cnc2ncccn12)NC(=O)[C@H]1C[C@@H]1c1ccc(-c2cnc3nc(C(C)(F)F)cn3c2)cc1 [Example 80]", "true (1)"),
    ("Cc1cn2cc(-c3ccc(C4CC45CCN([C@H](Cc4cnn(C(F)F)c4)C(=O)NC(C)(C)Cn4nc(C(F)(F)F)cc4-c4cnc(C)nc4)C5=O)c(C)n3)cnc2n1 (single isomer, unassigned; isomer 1) [Example 110]", "true (1)"),
    ("CC(C)(Cc1ccc(F)cc1)NC(=O)[C@@H](Cc1cnc2ncccn12)NC(=O)[C@H]1C[C@@H]1c1ccc(NC(=O)C2CC(F)(F)C2)cc1 [Example 48]", "false (0)"),
    ("Cn1cc2cc(-c3ccc([C@H]4C[C@@]45CCN([C@H](Cc4cnn(C(F)F)c4)C(=O)NC(C)(C)Cn4nc(C(F)(F)F)cc4-c4ccc(=O)n(CC(F)(F)F)c4)C5=O)cc3)cnc2n1 [Example 125]", "false (0)"),
    ("Cn1cc(C[C@@H](NC(=O)[C@H]2C[C@@H]2c2ccc(-c3cnc4nn(C)cc4c3)cc2)C(=O)NC(C)(C)Cn2nc(C(F)(F)F)cc2-c2cc[nH]n2)cn1 [Example 42]", "false (0)"),
    ("Cn1cc(C[C@@H](NC(=O)[C@H]2C[C@@H]2c2ccc(-c3cnc4nc(C(F)(F)F)cn4c3)cc2)C(=O)NC(C)(C)Cn2nc(C(F)(F)F)cc2-c2nnc[nH]2)cn1 [Example 25]", "false (0)"),
    ("Cn1cc2cc(-c3ccc(C4CC45CCN([C@H](Cc4cnn(C(F)F)c4)C(=O)NC(C)(C)Cn4nc(C(F)(F)F)cc4-c4cc(F)c(=O)n(C)c4)C5=O)c(C(F)F)c3)cnc2n1 (single isomer, unassigned; isomer 2) [Example 109]", "true (1)"),
    ("[2H]C([2H])([2H])N(C(=O)[C@H]1C[C@@H]1c1cnc(-c2cnc3nn(C)cc3c2)nc1C(F)(F)F)[C@H](Cc1cnn(C(F)F)c1)C(=O)NC(C)(C)Cn1nc(C(F)(F)F)cc1-c1cc(F)c(=O)n(C)c1 [Example 139]", "true (1)"),
    ("CCn1cc2cc(-c3ccc([C@H]4C[C@@]45CCN([C@H](Cc4cnn(C(F)F)c4)C(=O)NC(C)(C)Cn4nc(C(F)(F)F)cc4-c4cnc(C(C)(C)O)nc4)C5=O)c(C)n3)cnc2n1 [Example 164]", "true (1)"),
    ("COC(=O)N(C)c1cc([C@H]2C[C@@H]2C(=O)N[C@H](Cc2cnn(C(F)F)c2)C(=O)NC(C)(C)Cn2nc(C(F)(F)F)cc2-c2cc(F)c(=O)n(C)c2)c(F)cc1O [Example 181]", "true (1)"),
]
